System: Es-2
Test: Confirmatory qHTS for gynecologic anti-cancer compounds from libraries of approved drugs and bioactive compounds; further: nearly all actives have a fitted effect of over 55% in size
Settings: gynecologic cancer cell panel viability, ATPlite luminescence, 48 h; series mostly up to 57.6 µM
Results filed as inconclusive are left out. Activity calls are given as the source filed them. The call rests on the fitted dose curve; in most records, active means well fitted cell-killing curve with a large enough effect; inconclusive means small, poorly fitted or top-dose-only effect, or effect the other way; inactive means no such curve, though single readings can be large or run the other way.
Outcome codes: active, inactive

{"columns": ["MOLECULE", "GROUP_LABEL"],
 "data": [
  ["CCN1CCN(C(=O)Cc2ccc(Nc3ncc(F)c(Nc4ccc(C(=O)Nc5ccccc5Cl)cc4)n3)cc2)CC1", "inactive"],
  ["C=C(C)[C@H]1Cc2c(ccc3c2O[C@@H]2COc4cc(OC)c(OC)cc4[C@@H]2C3=O)O1", "active"],
  ["C[C@H]1CCC/C=C/C2C[C@H](O)C[C@H]2[C@H](O)/C=C/C(=O)O1 (some centres undefined)", "active"],
  ["C[C@]12CC[C@H]3[C@@H](CCC4=CC(=O)CC[C@@H]43)[C@@H]1CC[C@@H]2OC(=O)CCc1ccccc1", "inactive"]
]}

Data origin, for the record: PubChem BioAssay AID1345085
